# key: entry, value: melting point

Solved entries:
- smiles representation: "O=C(O[C@H]1C[N+]2(CCOc3ccccc3)CCC1CC2)N(CC1CCCCC1)c1ccccc1F.[Br-]"
  recorded value: "73.1 to 74.5 °C"
- smiles representation: "O=C(O[C@H]1C[N+]2(CCCc3ccccc3)CCC1CC2)N(CC1CCCCC1)c1ccccc1F.[Br-]"
  recorded value: "73.3 to 74.1 °C"
- smiles representation: "O=C(O[C@H]1C[N+]2(CCOc3ccccc3)CCC1CC2)N(Cc1cc(F)c(F)c(F)c1)c1cccc(F)c1.[Br-]"
  recorded value: "173.9 to 175.5 °C"

So, Cc1cccc(N(Cc2cc(F)c(F)cc2F)C(=O)O[C@H]2C[N+]3(CCOc4ccccc4)CCC2CC3)c1.[Br-] ? Its melting point was 137.3 to 139.1 °C
